Please provide measured composite z-score for the entries that follow.
- test-protocol: small-molecule binders of probe aNOTCH2, primary screen, biochemical, small-molecule microarray, 635/667 nm fluorescence (AID 1121);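 further: score merges feature fluorescence read at 667 nm with its signal to noise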
- settings: higher = more signal
Give bare numbers.

Some solved entries appear below for comparison.
>  <molecule>
Cc1ccc(S[C@]2(C(=O)NCC(C)C)CC(=O)N(Cc3cc(C(F)(F)F)cc(C(F)(F)F)c3)[C@@H]2c2ccc(CO)cc2I)cc1

>  <endpoint-result>
-0.0415

$$$$
>  <molecule>
C=C(COC)/C(=C/C[C@@H](OC(C)=O)c1ccc(CO)o1)c1cnc2ccccc2c1

>  <endpoint-result>
0.0616

$$$$
>  <molecule>
CC(C)(C)OC(=O)CC[C@]12N=C(c3ccc(OCCCO)cc3)O[C@H]1c1ccccc1N(CCS(=O)(=O)c1ccccc1)C2=O

>  <endpoint-result>
-0.0241

$$$$
>  <molecule>
O=C1C2C=CC(C(O)c3ccc(F)cc3)N(Nc3ccccc3F)C2C(=O)N1c1ccccc1 (stereo not given)

>  <endpoint-result>
-0.0194

$$$$
>  <molecule>
CCCC=C(CCC)[C@@H](NC(=O)Oc1ccc(F)cc1)c1ccc(C(=O)OC)cc1

>  <endpoint-result>
-0.0817

$$$$
>  <molecule>
C=C[C@H](COC(C)=O)N(C(=O)OC(C)(C)C)S(=O)(=O)c1ccc(Br)cc1

>  <endpoint-result>
0.463

$$$$
>  <molecule>
C=CCC(OC(C)=O)[C@@H]1[C@@H](N(Cc2ccc(-c3cccc(C(F)(F)F)c3)o2)C(=O)Cc2ccc(F)cc2)c2cc(OCCCO)ccc2N1C(=O)Cc1ccc(OC)cc1 (stereo not given in full)

>  <endpoint-result>
-0.124

$$$$
>  <molecule>
C=C(COC)/C(=C/C[C@H](OC(=O)c1ccncc1)c1ccc(OCCO)cc1)c1cnc2ccccc2c1

>  <endpoint-result>
-0.0389

$$$$
>  <molecule>
COc1cc2c(cc1OC)CN(C(=O)[C@@H]1[C@H]3C(=O)O[C@H](c4ccccc4)[C@H](c4ccccc4)N3[C@H](c3ccc(O)cc3)[C@@]13C(=O)Nc1ccc(C#CC4(O)CCCCCC4)cc13)CC2

>  <endpoint-result>
0.0834

$$$$
>  <molecule>
COc1ccc([C@H]2C[C@H]3C(Br)=C[C@@H]2C(=O)[C@]32CO2)cc1

>  <endpoint-result>
-0.075

$$$$

Please go through the list and note composite z-score for each molecule.
1. C=CC[C@@]1(C(N)=O)N=C(c2ccc(OCCCO)cc2)O[C@@H]1c1ccccc1CN=[N+]=[N-]
2. C[C@@H]1ON(c2cccc(C(=O)OC(C)(C)C)c2)[C@H](c2ccc(Br)cc2)[C@H]1C(=O)N1C(=O)OC[C@H]1Cc1ccccc1

[-0.0712, -0.0454]

###

- test-protocol: FRG1 promoter luciferase signal modulators, primary screen, FRG1 inhibition for FSHD, cell-based, C2C12 myotubes, firefly/Renilla luciferase, luminescence (AID 1084)
- settings: higher = more signal, called active from +8 up or from −8 down
Please provide measured z-score for the entries that follow.
One number for each entry.

>  <mol-smiles>
C=CCOC(=O)[C@@H]1[C@H]2C(=O)O[C@H](c3ccccc3)[C@H](c3ccccc3)N2[C@H](c2ccc(OCCOC(=O)[C@@H]3C[C@@H]4C(=O)N[C@@H](Cc5ccccc5)C(=O)N4[C@@H]3c3ccc(O)cc3)cc2)[C@@]12C(=O)Nc1ccc(I)cc12

>  <z-score>
1.42

$$$$
>  <mol-smiles>
CCOC(=O)C[C@H]1[C@H](OC(=O)c2cc3ccccc3oc2=O)[C@@H](NC(=O)C2CCCCC2)c2cc(OCCCO)ccc2N1C(=O)c1ccccc1

>  <z-score>
0.0161

$$$$
>  <mol-smiles>
C=CCNC(=O)[C@@H]1[C@H]2C(=O)O[C@H](c3ccccc3)[C@H](c3ccccc3)N2[C@H](c2ccc(OCCO)cc2)[C@@]12C(=O)Nc1ccc(C#Cc3ccc(OC)cc3)cc12

>  <z-score>
0.994

$$$$
>  <mol-smiles>
COCCOC(=O)N1C(=O)[C@@]2(c3cc(C#CC4=CCCCC4)ccc31)[C@H](C(=O)N1CCc3cc(OC)c(OC)cc3C1)[C@H]1C(=O)O[C@H](c3ccccc3)[C@H](c3ccccc3)N1[C@@H]2c1ccc(OCCO)cc1

>  <z-score>
0.235

$$$$

Please go through the list and note z-score for each molecule.
1. O=C(NCc1ccc(F)cc1)[C@H]1C[C@H]2C(=O)N[C@@H](Cc3ccccc3)C(=O)N2[C@H]1c1ccc(O)cc1
2. O=C1O[C@H](c2ccccc2)[C@H](c2ccccc2)N2[C@H]1[C@@H](C(=O)Nc1nc3ccccc3s1)[C@]1(C(=O)Nc3ccc(C#CC4(O)CCCCCC4)cc31)[C@H]2c1ccc(OCCO)cc1

1: 1.1; 2: 1.97

###

- test-protocol: A549 lung cancer cell viability effects, profiling panel, resazurin fluorescence, 24 h, PK04 Diversity Set (AID 1171); further: test concentration not given here
- settings: higher = more signal, called active from +8 up or from −8 down
Decision: z-score compared against -0.3; not below it gives True, below it gives False.

>  <compound>
COCCOC(=O)N1C(=O)[C@@]2(c3cc(C#Cc4ccc(OC)cc4)ccc31)[C@H](C(=O)N1CCCCCCC1)[C@H]1C(=O)O[C@H](c3ccccc3)[C@H](c3ccccc3)N1[C@@H]2c1ccc(OCCO)cc1

>  <group-label>
True

$$$$
>  <compound>
CCOC(=O)C[C@H]1[C@H](OC(=O)c2ccc(C(=O)c3ccccc3)cc2)[C@@H](NC(=O)c2ccc(-c3ccccc3)cc2)c2cc(OCCCO)ccc2N1C(=O)c1ccccc1

>  <group-label>
False

$$$$
>  <compound>
COCCOC(=O)N1C(=O)[C@@]2(c3cc(C#CC4=CCCCC4)ccc31)[C@H](C(N)=O)[C@H]1C(=O)O[C@H](c3ccccc3)[C@H](c3ccccc3)N1[C@@H]2c1ccc(OCCO)cc1

>  <group-label>
False

$$$$
>  <compound>
CN1C(=O)C2C=CC(C(O)c3cccs3)N(Nc3ccccc3)C2C1=O (stereo unspecified)

>  <group-label>
False

$$$$
>  <compound>
CCCC=C(CCC)[C@@H](NC(=O)Oc1ccc(F)cc1)c1ccc(C(=O)OC)cc1

>  <group-label>
True

$$$$

# input for lookup
Dear colleague, could you confirm whether C=CCNC(=O)[C@H]1[C@@H]2C(=O)O[C@@H](c3ccccc3)[C@@H](c3ccccc3)N2[C@@H](c2ccc(OCCO)cc2)[C@]12C(=O)Nc1ccc(C#CC3=CCCCC3)cc12 has z-score at or above -0.3?
False

###

- System: Human papillomavirus type 1a protein E7 (residues 44-93)
- test-protocol: HPV1a E7 fragment binders on microarrays, primary screen, biochemical, small-molecule microarray, residues 44-93, 635 nm fluorescence (AID 1108);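 further: E7 fragment applied at 1 µg/mL in TBST for 1 h at 4 C; score combines spot fluorescence with its signal to noise ratio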
- settings: small-molecule microarray binding, fluorescence 635 nm; higher = more signal
quantity: composite z-score
Give bare numbers.

Some solved entries appear below for comparison.
>  <compound>
COCCOC(=O)N1C(=O)[C@@]2(c3cc(C#CCCO)ccc31)[C@H](c1ccc(OCCO)cc1)N1[C@H](c3ccccc3)[C@H](c3ccccc3)OC(=O)[C@H]1[C@@H]2C(=O)N1CCN(c2ncccn2)CC1

>  <composite z-score>
1.37

$$$$
>  <compound>
CC(C)c1ccc(NN2C(C(O)C(c3ccccc3)c3ccccc3)C=CC3C(=O)N(c4ccccc4)C(=O)C32)cc1 (stereo unspecified)

>  <composite z-score>
1.42

$$$$
>  <compound>
CS(=O)(=O)CCOC(=O)C1=CC(CCCO)=CC(c2ccc(CN3CCCC3)cc2)N(Cc2cc3c(cc2Br)OCO3)C=C1C(=O)OCCS(C)(=O)=O (stereo unspecified)

>  <composite z-score>
0.981

$$$$
>  <compound>
CC1CC/C=C\[C@H]2OC34C=CCN(C(C)(C)C)C(=O)[C@H]3N(CCCCCCO)C(=O)[C@@H]4C2C(=O)O1 (stereo partly specified)

>  <composite z-score>
-0.0409

$$$$
>  <compound>
COc1ccc(C#Cc2ccc3c(c2)[C@]2(C(=O)N3)[C@H](c3ccccc3OCCO)N3[C@H](c4ccccc4)[C@H](c4ccccc4)OC(=O)[C@H]3[C@@H]2C(=O)O)cc1

>  <composite z-score>
1.42

$$$$

Now look at this one.
Can you share its composite z-score? I mean this compound: CCCCCN1CC=CC23O[C@@H]4/C=C\CCCOC(=O)C4[C@H]2C(=O)N(CCCO)[C@@H]3C1=O (stereo partly specified)
0.626

###

- Tested on: Sonic hedgehog protein (Shh)
- test-protocol: small-molecule binders of Shh protein, primary screen, biochemical, small-molecule microarray, 635/667 nm fluorescence (AID 1151);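 further: Shh protein binding to compounds spotted on small-molecule microarray slides; score combines spot fluorescence intensity with signal-to-noise across triplicate slides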
- settings: small-molecule microarray binding, 635 nm fluorescence; higher = more signal
Please provide measured composite z-score for the entries that follow.

>  <compound>
CN(C)CCCNC(=O)[C@@]1(C)c2ccccc2C(=O)N(Cc2cc(F)cc(C(F)(F)F)c2)[C@H]1c1ccc(CO)cc1

>  <endpoint-result>
-0.335

$$$$
>  <compound>
CCN(CC)c1ccc(N2CC=CC34O[C@@H]5/C=C\CCC(C)OC(=O)C5[C@H]3C(=O)N(C(CO)C(C)C)[C@@H]4C2=O)cc1 (some centres undefined)

>  <endpoint-result>
0.661

$$$$

Please go through the list and note composite z-score for each compound.
1. [N-]=[N+]=Nc1ccccc1C[C@@]1(C(=O)NCCN2CCOCC2)N=C(c2ccc(OCCCO)cc2)O[C@@H]1c1ccccc1
2. C=CCOC(=O)[C@@H]1[C@H]2C(=O)O[C@H](c3ccccc3)[C@H](c3ccccc3)N2[C@H](c2ccc(OCCOC(=O)[C@@H]3C[C@@H]4C(=O)N[C@@H](CCCCN(C)C)C(=O)N4[C@@H]3c3ccc(O)cc3)cc2)[C@@]12C(=O)Nc1ccc(I)cc12
3. C=C(/C(=C/C[C@@H](OC(C)=O)c1ccc(OCCO)cc1)c1cnc2ccccc2c1)C(C)C

1. 0.721
2. 1.74
3. 1.67

# credit: PubChem BioAssay
